Target: T1, HER2-ECD (human epidermal growth factor receptor 2, extracellular domain) (Homo sapiens, UniProt P04626)
T1 construct: also called HER-ECD
Test: ELISA
Conditions: one partner purified
Parameter Measured: binding result

Data request: Look at this binder and give its reported binding result. GH2-42 scFv (scFv, V domains shown, also called scFv(GH2-42); source: E. coli ER2738, secreted, in filtered culture supernatant) VH: EVQLVESGGGLVQPGGSLRLSCAASGFTISNWGIHWVRQAPGKGLEWVAGIGPYGGYTSYADSVKGRFTISADTSKNTAYLQMNSLRAEDTAVYYCARFGFYFDGIMDYWGQGTLVTVSS VL: DIQMTQSPSSLSASVGDRVTITCRASQDVSSGVAWYQQKPGKAPKLLISGPTGLYSGVPSRFSGSGSGTDFTLTISSLQPEDFATYYCQQYYDWPLTFGQGTKVKRG
Data returned: binds

Data request: Look at this binder and give its reported binding result. GH2-62 scFv (scFv, V domains shown, source: E. coli ER2738, secreted, in filtered culture supernatant) VH: EVQLVESGGGLVQPGGSLRLSCAASGFTINNWGIHWVRQAPGKGLEWVAGIWPFGGYTYYADSVKGRFTISADTSKNTAYLQMNSLRAEDTAVYYCARFDYLNNGGMDYWGQGTLVTVSS VL: DIQMTQSPSSLSASVGDRVTITCRASQDVGGYVAWYQQKPGKAPKLLIFGASGLYSGVPSRFSGSGSGTDFTLTISSLQPEDFATYYCQQFYSSPLTFGQGTKVEIK
Data returned: binds

Data request: Look at this binder and give its reported binding result. GH2-72 scFv (scFv, V domains shown, source: E. coli ER2738, secreted, in filtered culture supernatant) VH: EVQLVESGGGLVQPGGSLRLSCAASGFTISNGGIHWVRQAPGKGLEWVAYIWPSGGYTFYADSVKGRFTISADTSKNTAYLQMNSLRAEDTAVYYCARFFNNDWIGMDYWGQGTLVTVSS VL: DIQMTQSPSSLSASVGDRVTITCRASQDVGYFVAWYQQKPGKAPKLLISGTTWLYSGVPSRFSGSGSGTDFTLTISSLQPEDFATYYCQQYSNWPLTFGQGTKVEIK
Data returned: binds
